Entry source: patent US20220356245A1

- study_target: T1, human CD47 (hCD47) expressed on cells (human, UniProt Q08722 19-323)
- T1 construct: Transfected CHO cells or endogenous CD47 of human cells; also called CHO-hCD47; CD47 on Raji cells
- experiment_notes: flow cytometry, Raji cells, competition with hSIRPα
reported_property: IC50
Don't forget the unit after the number, please.

// below: answered binders
binder	IC50
h20-VH4-VL3 (candidate 20.18) (antibody, human IgG4 S228P, kappa, V domains shown, hIgG4-S228P/kappa; also called h20-H4-L3) VH: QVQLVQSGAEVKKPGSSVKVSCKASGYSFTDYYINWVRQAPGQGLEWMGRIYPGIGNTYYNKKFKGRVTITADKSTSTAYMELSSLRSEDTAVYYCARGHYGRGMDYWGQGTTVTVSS VL: EIVLTQSPDSLAVSLGERATINCKSSQSLLNSIDQKNYLAWYQQKAGQSPKLLIYFASTKESGVPDRFSGSGSGTDFTLTIDSLQAEDVAVYYCQQHYSTPWTFGGGTKVEIKR	0.142 µg/mL
h20-VH1-VL4 (candidate 20.4) (antibody, human IgG4 S228P, kappa, V domains shown, hIgG4-S228P/kappa; also called h20-H1-L4) VH: QVQLLESGAVLARPGTSVKISCKASGYSFTDYYINWVKQRPGQGLEWIGRIYPGIGNTYYNKKFKGRAKLTAATSASIAYLEFSSLTNEDSAVYYCARGHYGRGMDYWGQGTLVTVSS VL: DIVMTQSPDSLAVSLGERATINCKSSQSLLNSIDQKNYLAWYQQKPGQPPKLLIYFASTKESGVPDRFSGSGSGTDFTLTISSLQAEDVAVYFCQQHYSTPWTFGGGAKVEIKR	0.261 µg/mL

Quickly give me recorded IC50 for h20-VH3-VL3 (candidate 20.13) (antibody, human IgG4 S228P, kappa, V domains shown, hIgG4-S228P/kappa; also called h20-H3-L3) VH: QVQLVQSGAEVKKPGASVKVSCKASGYSFTDYYINWVRQAPGQGLEWMGRIYPGIGNTYYNKKFKGRVTVTRDTSISTAHMELSSLRSDDTAVYYCARGHYGRGMDYWGQGTAVTVSS VL: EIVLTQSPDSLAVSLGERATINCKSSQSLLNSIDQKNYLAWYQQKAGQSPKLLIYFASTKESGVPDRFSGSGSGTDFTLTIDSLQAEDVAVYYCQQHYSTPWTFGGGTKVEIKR
0.173 µg/mL
